Data credit: patent EP2486923B1

molecular target: HDAH (Alcaligenes sp.); test: Two-step fluorescence assay for determination of IC50; format: biochemical; details: HDAC-like amidohydrolase; ε-acetylated lysine substrate, trypsin release of 7-amino-4-methylcoumarin; four parameter fit; read-out: IC50 values HDAH
Sequence (Q70I53 whole entry): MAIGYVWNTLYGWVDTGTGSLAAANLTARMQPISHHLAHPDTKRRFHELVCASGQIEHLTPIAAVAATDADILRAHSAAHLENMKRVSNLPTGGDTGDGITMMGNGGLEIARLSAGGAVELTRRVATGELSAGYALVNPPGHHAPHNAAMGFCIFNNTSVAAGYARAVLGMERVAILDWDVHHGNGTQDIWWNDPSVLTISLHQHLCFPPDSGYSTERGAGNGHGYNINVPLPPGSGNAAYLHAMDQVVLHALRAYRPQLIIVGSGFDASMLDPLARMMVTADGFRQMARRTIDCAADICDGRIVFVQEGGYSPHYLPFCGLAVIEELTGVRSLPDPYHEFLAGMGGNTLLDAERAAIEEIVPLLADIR
outcome measure: pIC50
# pIC50 is unitless: minus log10 of the molar concentration; print number only

Here are 3 molecules together with their reported answers.
1) O=C(NO)C(F)(F)C(F)(F)C(F)(F)C(F)(F)C(F)(F)C(F)(F)C(=O)Nc1nc(-c2ccccc2)cs1 : 5.29
2) CC(=O)Nc1ccc(NC(=O)C(F)(F)C(F)(F)C(F)(F)C(F)(F)C(F)(F)C(F)(F)C(=O)NO)cc1 : 5.47
3) CCc1cccc(NC(=O)C(F)(F)C(F)(F)C(F)(F)C(F)(F)C(F)(F)C(F)(F)C(=O)NO)c1 : 5.04

Here's the next entry for you.
Fill: pIC50 (HDAH (Alcaligenes sp.)) for this molecule "O=C(NO)C(F)(F)C(F)(F)C(F)(F)C(F)(F)C(F)(F)C(F)(F)C(=O)Nc1ccccc1"
5.78
